# Tested System: Phosphatidylinositol 4,5-bisphosphate 3-kinase catalytic subunit alpha isoform (Homo sapiens, UniProt P42336)
# Sequence (P42336 whole entry, canonical isoform): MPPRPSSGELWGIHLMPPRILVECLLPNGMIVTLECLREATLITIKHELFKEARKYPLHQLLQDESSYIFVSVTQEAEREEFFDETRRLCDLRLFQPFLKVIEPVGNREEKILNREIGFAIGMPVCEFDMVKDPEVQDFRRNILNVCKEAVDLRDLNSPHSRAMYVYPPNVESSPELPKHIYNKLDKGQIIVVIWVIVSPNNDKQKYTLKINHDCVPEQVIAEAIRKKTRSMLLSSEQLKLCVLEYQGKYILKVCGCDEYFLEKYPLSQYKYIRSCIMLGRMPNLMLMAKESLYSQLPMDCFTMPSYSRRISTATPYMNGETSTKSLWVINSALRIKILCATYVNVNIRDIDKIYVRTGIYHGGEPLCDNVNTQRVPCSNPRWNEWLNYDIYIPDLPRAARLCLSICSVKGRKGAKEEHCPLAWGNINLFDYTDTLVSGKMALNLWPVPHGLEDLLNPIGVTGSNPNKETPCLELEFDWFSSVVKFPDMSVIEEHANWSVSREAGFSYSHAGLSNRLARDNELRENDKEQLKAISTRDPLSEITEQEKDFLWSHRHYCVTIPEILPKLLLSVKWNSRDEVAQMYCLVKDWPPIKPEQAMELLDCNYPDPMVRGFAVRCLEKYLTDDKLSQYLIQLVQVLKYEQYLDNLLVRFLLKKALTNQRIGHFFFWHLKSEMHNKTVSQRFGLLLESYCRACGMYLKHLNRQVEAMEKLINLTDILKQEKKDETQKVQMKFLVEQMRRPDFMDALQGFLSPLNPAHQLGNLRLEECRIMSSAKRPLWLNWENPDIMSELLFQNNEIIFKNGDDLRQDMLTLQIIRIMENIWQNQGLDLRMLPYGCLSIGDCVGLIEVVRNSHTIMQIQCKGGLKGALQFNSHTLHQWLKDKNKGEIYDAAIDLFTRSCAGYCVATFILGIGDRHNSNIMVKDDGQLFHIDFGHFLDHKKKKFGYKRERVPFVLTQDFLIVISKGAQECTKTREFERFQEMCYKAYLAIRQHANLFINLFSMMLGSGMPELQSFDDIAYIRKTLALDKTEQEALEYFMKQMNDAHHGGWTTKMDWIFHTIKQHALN
# Run Description: Inhibition of N-terminal His-6-tagged full length human PI3Kalpha expressed in baculovirus-infected sf9 cells after 30 mins by TR-FRET assay
Parameter: pIC50
Recall that pIC50 is obtained by taking minus log10 of the concentration measured in molar.

Give pIC50 for the following compound: `Oc1cc(Br)cc(-c2nc(N3CCOCC3)c3oc4ncccc4c3n2)c1`
5.92

For the compound `Oc1cc(F)cc(-c2nc(N3CCOCC3)c3oc4ncccc4c3n2)c1` , give its measured pIC50 value.
7.39

Complete the entry with pIC50 for `Oc1cc(O)cc(-c2nc(N3CCOCC3)c3oc4ncccc4c3n2)c1`
8.23

---
Read off the recorded pIC50 for `Oc1cc(Cl)cc(-c2nc(N3CCOCC3)c3oc4ncccc4c3n2)c1`
6.00

Find the measured pIC50 of `Nc1cc(O)cc(-c2nc(N3CCOCC3)c3oc4ncccc4c3n2)c1` and report it.
7.69

###

# Tested System: Phosphatidylinositol 4,5-bisphosphate 3-kinase catalytic subunit alpha isoform (Homo sapiens, UniProt P42336, Y836A)
# Sequence (P42336 whole entry Y836A, canonical isoform): as the sequence (P42336 whole entry, canonical isoform) above, with Y836A counted along it
# Run Description: Inhibition of GST-tagged full length human PI3Kalpha Y836A mutant expressed in baculovirus-infected sf9 cells after 30 mins by TR-FRET assay
Parameter: IC50 (nM)
Just the number please, in nM, no unit attached.

For the molecule `Oc1cc(O)cc(-c2nc(N3CCOCC3)c3oc4ncccc4c3n2)c1` , give its reported IC50.
140

###

# Tested System: Phosphatidylinositol 4,5-bisphosphate 3-kinase catalytic subunit alpha isoform (Homo sapiens, UniProt P42336, D810A)
# Sequence (P42336 whole entry D810A, canonical isoform): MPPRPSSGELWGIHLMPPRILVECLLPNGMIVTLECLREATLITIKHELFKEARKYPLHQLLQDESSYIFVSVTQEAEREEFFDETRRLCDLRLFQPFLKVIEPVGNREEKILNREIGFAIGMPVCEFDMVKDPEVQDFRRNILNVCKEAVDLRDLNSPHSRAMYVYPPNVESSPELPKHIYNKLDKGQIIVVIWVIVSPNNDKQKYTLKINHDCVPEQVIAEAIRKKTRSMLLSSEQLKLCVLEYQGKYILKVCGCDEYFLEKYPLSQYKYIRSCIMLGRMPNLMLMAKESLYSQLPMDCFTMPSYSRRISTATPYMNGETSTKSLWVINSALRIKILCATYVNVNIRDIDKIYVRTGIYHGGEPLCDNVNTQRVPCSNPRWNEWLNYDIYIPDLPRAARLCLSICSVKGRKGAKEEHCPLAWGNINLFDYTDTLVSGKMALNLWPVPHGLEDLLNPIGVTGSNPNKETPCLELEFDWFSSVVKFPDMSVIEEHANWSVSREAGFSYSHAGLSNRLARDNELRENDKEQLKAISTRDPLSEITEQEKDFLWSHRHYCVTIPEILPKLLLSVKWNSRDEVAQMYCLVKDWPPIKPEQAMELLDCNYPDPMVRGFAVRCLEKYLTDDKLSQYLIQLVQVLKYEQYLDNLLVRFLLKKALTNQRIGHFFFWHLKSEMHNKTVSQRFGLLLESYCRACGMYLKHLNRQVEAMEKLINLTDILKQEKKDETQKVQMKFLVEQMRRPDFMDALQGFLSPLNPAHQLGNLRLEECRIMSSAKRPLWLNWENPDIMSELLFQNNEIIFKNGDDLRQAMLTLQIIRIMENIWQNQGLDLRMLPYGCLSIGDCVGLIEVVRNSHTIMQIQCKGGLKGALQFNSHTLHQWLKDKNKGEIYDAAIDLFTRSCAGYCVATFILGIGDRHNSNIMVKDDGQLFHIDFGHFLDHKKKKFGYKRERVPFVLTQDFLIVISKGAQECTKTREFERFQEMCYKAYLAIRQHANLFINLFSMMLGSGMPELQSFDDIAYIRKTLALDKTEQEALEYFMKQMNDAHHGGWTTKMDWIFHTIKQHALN
# Run Description: Inhibition of GST-tagged full length human PI3Kalpha D810A mutant expressed in baculovirus-infected sf9 cells after 30 mins by TR-FRET assay
Parameter: IC50 (µM)
Give the value in µM but do not write µM after it.

Let me know recorded IC50 for `Oc1cc(O)cc(-c2nc(N3CCOCC3)c3oc4ncccc4c3n2)c1` , thanks.
0.0613

###

# Tested System: Phosphatidylinositol 4,5-bisphosphate 3-kinase catalytic subunit alpha isoform (Homo sapiens, UniProt P42336)
# Run Description: Inhibition of N-terminal His-6-tagged full length human PI3Kalpha expressed in baculovirus-infected sf9 cells after 30 mins by TR-FRET assay
Parameter: IC50

// known answers, use as guide
Tell us which IC50 value is on record for `Oc1cc(-c2nc(N3CCOCC3)c3oc4ncccc4c3n2)cc(C(F)(F)F)c1`
> 10 µM

Consider the compound `O=[N+]([O-])c1cc(O)cc(-c2nc(N3CCOCC3)c3oc4ncccc4c3n2)c1` . State its measured IC50.
> 10 µM

Please find the next compound below.
Answer with the recorded IC50 for the compound listed here: `Cc1cc(O)cc(-c2nc(N3CCOCC3)c3oc4ncccc4c3n2)c1`
> 10 µM

Where these numbers come from: ChEMBL document CHEMBL3108771
